FYI, the data here is from patent US20240279318A1.

subject.of.test: T1, AFP158/HLA-A*02:01 complex (human)
T1 construct: flowed over the chip in SPR; also called AFP158 pro
assay.name: SPR, KD ratio to AS170036 VL1VH1;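 further: crude scFv captured on a sensor chip, peptide–HLA complex passed over at several concentrations, association then buffer dissociation, KD derived from on- and off-rates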
recorded.metric: Affinity increase
Entry format: amount then unit.

As a guide, the following entries are already answered.
binder	Affinity increase
LY34T (scFv, AS170036 VL1VH1 scFv mutein) scFv: QSALTQPRSVSGSPGQSVTISCAGTSSDVGSENTVSWYQQHPGKAPKLMIYQVNKRASGVPDRFSGSKSGNTASLTISGLQAEDEADYYCASYRSSDHNIVFGGGTKLTVLGGGGSGGGGSGGGGSEVQLVESGGGLVQPGGSLRLSCAASGFTFSSYAMSWVRQAPGKGLEWVSTINSGTGSPYYADSVKGRFTISRDNSKNTLYLQMNSLRAEDTAVYYCAKNFFDGSWFLGPPAMDYWGQGTLVTVSSHHHHHH	0.1 fold
LY34I (scFv, AS170036 VL1VH1 scFv mutein) scFv: QSALTQPRSVSGSPGQSVTISCAGTSSDVGSENIVSWYQQHPGKAPKLMIYQVNKRASGVPDRFSGSKSGNTASLTISGLQAEDEADYYCASYRSSDHNIVFGGGTKLTVLGGGGSGGGGSGGGGSEVQLVESGGGLVQPGGSLRLSCAASGFTFSSYAMSWVRQAPGKGLEWVSTINSGTGSPYYADSVKGRFTISRDNSKNTLYLQMNSLRAEDTAVYYCAKNFFDGSWFLGPPAMDYWGQGTLVTVSSHHHHHH	0.1 fold

Answer with the recorded Affinity increase for the binder listed here: LY34H (scFv, AS170036 VL1VH1 scFv mutein) scFv: QSALTQPRSVSGSPGQSVTISCAGTSSDVGSENHVSWYQQHPGKAPKLMIYQVNKRASGVPDRFSGSKSGNTASLTISGLQAEDEADYYCASYRSSDHNIVFGGGTKLTVLGGGGSGGGGSGGGGSEVQLVESGGGLVQPGGSLRLSCAASGFTFSSYAMSWVRQAPGKGLEWVSTINSGTGSPYYADSVKGRFTISRDNSKNTLYLQMNSLRAEDTAVYYCAKNFFDGSWFLGPPAMDYWGQGTLVTVSSHHHHHH
0.5 fold
